system: Pseudomonas aeruginosa ATCC 27853; format: cell-based; details: ATCC 27853
Where a SMILES comes first, the peptide text is derived from it. Bridges are numbered along the chain shown (N, C = ends). [ ]: non-standard residue; d: D form. The star is where a group is joined. X47 = O=C(c1cc2cc(Cl)ccc2[nH]1)*; X16 = O=C(c1cnc(-c2ccccc2)nc1)*; X9 = O=C(c1ccnc(C(F)(F)F)c1)*; X22 = Cn1c(C(=O)*)cc2ccccc21; X28 = Cc1cc(C(=O)*)cc(Cl)n1; X1 = O=C(c1ncc(Cl)cc1Cl)*; X26 = CCc1ccc(C(=O)*)cn1; Dab = NCC[C@H](N)C(=O)O; X3 = O=C(c1cncc(Cl)c1)*; X60 = O=C(c1cnc(Br)s1)*; X68 = O=C(c1coc(Br)c1)*; Abu = CC[C@H](N)C(=O)O; Dap = NC[C@H](N)C(=O)O
observation.type: Minimum inhibitory concentration (µg/mL)
One number for each entry, in µg/mL.

CC[C@@H]1NC(=O)[C@@H](CC(C)C)NC(=O)[C@H](CCN)NC(=O)[C@@H](NC(=O)[C@H](CN)NC(=O)[C@@H](NC(=O)[C@H](CCN)NC(=O)c2cncc(Cl)c2)[C@@H](C)O)CCNC(=O)[C@H]([C@@H](C)O)NC(=O)[C@H](CCN)NC(=O)[C@H](CCN)NC1=O [Compound 6] (X3-[Dab]T[Dap][Dab][Dab][dL][Abu][Dab][Dab]T; lactam 4-C)    1
CC[C@@H]1NC(=O)[C@@H](CC(C)C)NC(=O)[C@H](CCN)NC(=O)[C@@H](NC(=O)[C@H](CN)NC(=O)[C@@H](NC(=O)[C@H](CCN)NC(=O)c2ncc(Cl)cc2Cl)[C@@H](C)O)CCNC(=O)[C@H]([C@@H](C)O)NC(=O)[C@H](CCN)NC(=O)[C@H](CCN)NC1=O [Compound 1] (X1-[Dab]T[Dap][Dab][Dab][dL][Abu][Dab][Dab]T; lactam 4-C)    0.5
CC[C@@H]1NC(=O)[C@@H](CC(C)C)NC(=O)[C@H](CCN)NC(=O)[C@@H](NC(=O)[C@H](CN)NC(=O)[C@@H](NC(=O)[C@H](CCN)NC(=O)c2coc(Br)c2)[C@@H](C)O)CCNC(=O)[C@H]([C@@H](C)O)NC(=O)[C@H](CCN)NC(=O)[C@H](CCN)NC1=O [Compound 103] (X68-[Dab]T[Dap][Dab][Dab][dL][Abu][Dab][Dab]T; lactam 4-C)    0.5

// for each compound in input: emit Minimum inhibitory concentration
1. CC(C)C[C@H]1NC(=O)[C@H](CCN)NC(=O)[C@@H](NC(=O)[C@H](CN)NC(=O)[C@@H](NC(=O)[C@H](CCN)NC(=O)c2cc3ccccc3n2C)[C@@H](C)O)CCNC(=O)[C@H]([C@@H](C)O)NC(=O)[C@H](CCN)NC(=O)[C@H](CCN)NC(=O)[C@H]([C@@H](C)O)NC1=O [Compound 64] (X22-[Dab]T[Dap][Dab][Dab][dL]T[Dab][Dab]T; lactam 4-C)
2. CC[C@@H]1NC(=O)[C@@H](CC(C)C)NC(=O)[C@H](CCN)NC(=O)[C@@H](NC(=O)[C@H](CN)NC(=O)[C@@H](NC(=O)[C@H](CCN)NC(=O)c2cc(C)nc(Cl)c2)[C@@H](C)O)CCNC(=O)[C@H]([C@@H](C)O)NC(=O)[C@H](CCN)NC(=O)[C@H](CCN)NC1=O [Compound 39] (X28-[Dab]T[Dap][Dab][Dab][dL][Abu][Dab][Dab]T; lactam 4-C)
3. CC[C@@H]1NC(=O)[C@@H](CC(C)C)NC(=O)[C@H](CCN)NC(=O)[C@@H](NC(=O)[C@H](CN)NC(=O)[C@@H](NC(=O)[C@H](CCN)NC(=O)c2cc3cc(Cl)ccc3[nH]2)[C@@H](C)O)CCNC(=O)[C@H]([C@@H](C)O)NC(=O)[C@H](CCN)NC(=O)[C@H](CCN)NC1=O [Compound 59] (X47-[Dab]T[Dap][Dab][Dab][dL][Abu][Dab][Dab]T; lactam 4-C)
4. CC(C)C[C@H]1NC(=O)[C@H](CCN)NC(=O)[C@@H](NC(=O)[C@H](CN)NC(=O)[C@@H](NC(=O)[C@H](CCN)NC(=O)c2ccnc(C(F)(F)F)c2)[C@@H](C)O)CCNC(=O)[C@H]([C@@H](C)O)NC(=O)[C@H](CCN)NC(=O)[C@H](CCN)NC(=O)[C@H]([C@@H](C)O)NC1=O [Compound 32] (X9-[Dab]T[Dap][Dab][Dab][dL]T[Dab][Dab]T; lactam 4-C; N-terminus assumed)
5. CCc1ccc(C(=O)N[C@@H](CCN)C(=O)N[C@H](C(=O)N[C@@H](CN)C(=O)N[C@H]2CCNC(=O)[C@H]([C@@H](C)O)NC(=O)[C@H](CCN)NC(=O)[C@H](CCN)NC(=O)[C@H](CC)NC(=O)[C@@H](CC(C)C)NC(=O)[C@H](CCN)NC2=O)[C@@H](C)O)cn1 [Compound 41] (X26-[Dab]T[Dap][Dab][Dab][dL][Abu][Dab][Dab]T; lactam 4-C)
6. CC[C@@H]1NC(=O)[C@@H](CC(C)C)NC(=O)[C@H](CCN)NC(=O)[C@@H](NC(=O)[C@H](CN)NC(=O)[C@@H](NC(=O)[C@H](CCN)NC(=O)c2cnc(Br)s2)[C@@H](C)O)CCNC(=O)[C@H]([C@@H](C)O)NC(=O)[C@H](CCN)NC(=O)[C@H](CCN)NC1=O [Compound 91] (X60-[Dab]T[Dap][Dab][Dab][dL][Abu][Dab][Dab]T; lactam 4-C)
7. CC[C@@H]1NC(=O)[C@@H](CC(C)C)NC(=O)[C@H](CCN)NC(=O)[C@@H](NC(=O)[C@H](CN)NC(=O)[C@@H](NC(=O)[C@H](CCN)NC(=O)c2cnc(-c3ccccc3)nc2)[C@@H](C)O)CCNC(=O)[C@H]([C@@H](C)O)NC(=O)[C@H](CCN)NC(=O)[C@H](CCN)NC1=O [Compound 73] (X16-[Dab]T[Dap][Dab][Dab][dL][Abu][Dab][Dab]T; lactam 4-C)

[0.5, 0.5, 0.5, 0.5, 0.25, 0.5, 0.5]

Reported Minimum inhibitory concentration of C[C@@H]1NC(=O)[C@@H](Cc2ccccc2)NC(=O)[C@H](CCN)NC(=O)[C@@H](NC(=O)[C@H](CN)NC(=O)[C@@H](NC(=O)[C@H](CCN)NC(=O)c2ncc(Cl)cc2Cl)[C@@H](C)O)CCNC(=O)[C@H]([C@@H](C)O)NC(=O)[C@H](CCN)NC(=O)[C@H](CCN)NC1=O [Compound 9] (X1-[Dab]T[Dap][Dab][Dab][dF]A[Dab][Dab]T; lactam 4-C) : 0.25
